target: HDAC4 catalytic domain (wild type) (Homo sapiens, UniProt P56524); construct: we purified the recombinant catalytic domains of HDACs 4, 5, 7, and 9; hexa-histidine tag (N, cleaved yes); S-tag (N, cleaved yes); made in house; host or cells: Escherichia coli Rosetta (pET30); assay: Fluorescence anisotropy binding of BODIPY-TMR labeled GSI motif peptides to HDAC4; conditions: Fig. 2A; fluorescence anisotropy, BODIPY-TMR labeled peptide 1 μM, HDAC4 2-fold serial dilution, one-site binding fit; read-out: Kd
Sequence (P56524 655-1084 limits assumed): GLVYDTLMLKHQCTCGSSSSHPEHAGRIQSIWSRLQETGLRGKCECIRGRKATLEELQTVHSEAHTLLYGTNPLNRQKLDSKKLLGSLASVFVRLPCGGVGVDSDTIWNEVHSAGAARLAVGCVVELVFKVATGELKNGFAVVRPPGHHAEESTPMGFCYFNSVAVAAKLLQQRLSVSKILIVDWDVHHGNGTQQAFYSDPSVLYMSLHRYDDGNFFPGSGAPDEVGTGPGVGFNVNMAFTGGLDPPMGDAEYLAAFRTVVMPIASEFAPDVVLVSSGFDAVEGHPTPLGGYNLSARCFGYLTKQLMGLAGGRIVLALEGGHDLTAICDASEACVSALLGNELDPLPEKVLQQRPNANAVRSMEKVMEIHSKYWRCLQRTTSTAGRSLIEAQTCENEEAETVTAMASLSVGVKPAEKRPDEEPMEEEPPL
pKd: −log10 of the molar value. No end group written: not given here.
MEASURED PROPERTY: pKd

{"SEQ TEXT": "CPRPLKEGSITEGTPLKYDTG [Q5E]", "ASSAY TARGET": "HDAC4 catalytic domain (wild type) (Homo sapiens, UniProt P56524)", "pKd": 4.75}
{"SEQ TEXT": "CPRPLKEGSITQGTALKYDTG [P8A]", "ASSAY TARGET": "HDAC4 catalytic domain (wild type) (Homo sapiens, UniProt P56524)", "pKd": 4.33}
{"SEQ TEXT": "CPRPLKEGSIAQGTPLKYDTG [T4A]", "ASSAY TARGET": "HDAC4 catalytic domain (wild type) (Homo sapiens, UniProt P56524)", "pKd": 4.84}

a. CPRPLKEGSIVQGTPLKYDTG [T4V]
b. CPRPLKEGSITAGTPLKYDTG [Q5A]
-- ask From the recorded data, which exceeds the other in pKd: a or b ? Returns: label corresponding to the selected item.
-- reply b

* * *

molecular target: H976Y gain-of-function (GOF) HDAC4 catalytic domain (Homo sapiens, UniProt P56524, H976Y); construct: the H976Y gain-of-function (GOF) HDAC4 catalytic domain; hexa-histidine tag (N, cleaved yes); S-tag (N, cleaved yes); made in house; host or cells: Escherichia coli Rosetta (pET30); test: Fluorescence anisotropy binding of GSI peptide to H976Y gain-of-function HDAC4; settings: Fig. 4A; H976Y GOF HDAC4 catalytic domain preincubated 30 min with 2-fold molar excess of the named inhibitor; Kd is that of the labeled GSI peptide; read-out: GOF Kd of the GSI peptide in the presence of the HDAC inhibitor
Sequence (P56524 655-1084 H976Y limits assumed): as the sequence (P56524 655-1084 limits assumed) above, with H322Y counted along it
MEASURED PROPERTY: Kd (nM)
Expressed in nM, but write only the number.

-- ask So what does the record say about Kd for CCCC(=O)[O-].[Na+] [Sodium Butyrate, sodium butyrate, reference compound] ?
-- reply 2530
